Assay: Biodistribution in mice bearing bilateral PC3-WT/PC3-CXCR4 xenograft tumors
Format: in vivo, BALB/c mice
Settings: male, BALB/c athymic nude, mouse, PC3-CXCR4 tumor and bone, iv, total radioactivity, 2 h p.i.; read-out: PC3-CXCR4 Tumor-to-Tissue Ratio Bone
Non-standard residues stand in square brackets, D forms with d. Residues, ends and D or L forms follow the SMILES beside them. Groups on a side chain read outwards from the residue. *: point of attachment. DOTA = O=C(O)CN1CCN(CC(=O)O)CCN(CC(=O)*)CCN(CC(=O)O)CC1; 2Nal = N[C@@H](Cc1ccc2ccccc2c1)C(=O)O; dNMeOrn = CN[C@H](CCCN)C(=O)O; 4Amb = NCc1ccc(C(=O)O)cc1
reportedMetric: tissue to tissue ratio at 2 h

compound	reportedMetric	value
CN1C(=O)[C@@H](Cc2ccc(O)cc2)NC(=O)CNC(=O)[C@H](Cc2ccc3ccccc3c2)NC(=O)[C@H](CCCNC(=N)N)NC(=O)[C@H]1CCCNC(=O)c1ccc(CNC(=O)CN2CCN(CC(=O)O)CCN(CC(=O)O)CCN(CC(=O)O)CC2)cc1 (68Ga complex, metal not drawn) [Pentixafor, reference compound] (cyclo([dY][dNMeOrn]([4Amb-DOTA])R[2Nal]G))	tissue to tissue ratio at 2 h	47.2
